Values from the supplement of paper PMC12667976

B1: library; numbered along this chain (parent)
chain: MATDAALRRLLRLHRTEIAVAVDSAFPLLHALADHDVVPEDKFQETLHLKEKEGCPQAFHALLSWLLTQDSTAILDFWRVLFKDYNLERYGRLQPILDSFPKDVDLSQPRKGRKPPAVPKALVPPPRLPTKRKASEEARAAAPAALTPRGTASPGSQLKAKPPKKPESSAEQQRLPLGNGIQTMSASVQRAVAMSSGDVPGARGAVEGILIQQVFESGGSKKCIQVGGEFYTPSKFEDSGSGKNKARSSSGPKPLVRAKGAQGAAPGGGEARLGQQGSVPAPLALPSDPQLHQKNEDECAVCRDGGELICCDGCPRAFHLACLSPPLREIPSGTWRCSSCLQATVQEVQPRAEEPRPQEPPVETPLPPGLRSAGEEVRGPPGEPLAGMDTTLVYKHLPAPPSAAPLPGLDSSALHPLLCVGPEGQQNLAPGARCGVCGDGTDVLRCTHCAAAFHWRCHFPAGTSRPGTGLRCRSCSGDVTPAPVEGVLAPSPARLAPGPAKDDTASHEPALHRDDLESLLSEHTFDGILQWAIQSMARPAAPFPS

# Variants of: B1
# TEST: AIRE transcriptional activation functional score (insulin promoter-GFP; nonsense median 0, synonymous median 1) (normalised score); higher = higher AIRE activity (more reporter activation)
# RUN CONDITIONS: with insulin promoter-GFP reporter in HEK293
Quick rule for you: AIRE transcriptional activation functional score at 0.9 or higher means t, lower means f.

Item Q342T with AIRE transcriptional activation functional score of 0.9 or above?
f

Is reported AIRE transcriptional activation functional score greater than or equal to 0.9 here: T46Y
f

Evaluate N86D : AIRE transcriptional activation functional score at minimum 0.9?
f

Does the reported AIRE transcriptional activation functional score for Q44K fall at or above the 0.9 mark?
t

Evaluate F453C : AIRE transcriptional activation functional score at minimum 0.9?
f

Quick check, AIRE transcriptional activation functional score >= 0.9? A19H
f

Please indicate if the recorded AIRE transcriptional activation functional score for L320H meets or exceeds 0.9.
f

Is it the case that G219R has AIRE transcriptional activation functional score reaching or exceeding 0.9?
f

Could you tell me if the measured AIRE transcriptional activation functional score of A258S reaches 0.9 or more?
f

Check if AIRE transcriptional activation functional score >= 0.9 (inclusive). Item: D503F
f

Reported AIRE transcriptional activation functional score at or above 0.9? G382Y
t

Check this variant for AIRE transcriptional activation functional score at or above 0.9: E359Y
t

Confirm if AIRE transcriptional activation functional score reported for the variant S250D is 0.9 or above.
f

Decide: is the reported value of AIRE transcriptional activation functional score for P401Q equal to or greater than 0.9?
t

Determine whether this variant has AIRE transcriptional activation functional score no lower than 0.9: G527I
t

Does the reported AIRE transcriptional activation functional score for A134W fall at or above the 0.9 mark?
f

For this variant, is measured AIRE transcriptional activation functional score 0.9 or higher? H319E
t

Could you verify whether the entry G305Q shows AIRE transcriptional activation functional score of no less than 0.9?
f

State whether the measured AIRE transcriptional activation functional score reaches 0.9, counting equality as reaching it, for G313Y
t

hey, is AIRE transcriptional activation functional score for this one >= 0.9? Q94M
t

Please tell me: is the variant P129F at or over 0.9 in terms of AIRE transcriptional activation functional score?
f

State whether the measured AIRE transcriptional activation functional score reaches 0.9, counting equality as reaching it, for A186K
f

Given the entry D304S , answer whether its AIRE transcriptional activation functional score meets or surpasses 0.9.
t

Confirm if AIRE transcriptional activation functional score reported for the variant F453R is 0.9 or above.
f

Please check the record A31W and state if its AIRE transcriptional activation functional score is at or above 0.9.
f

Does the variant Q290F have recorded AIRE transcriptional activation functional score that is 0.9 or more?
t

Does E298D have a reported AIRE transcriptional activation functional score of at least 0.9?
t

Check the entry C457Q : does AIRE transcriptional activation functional score equal or exceed 0.9?
f

Is the recorded value of AIRE transcriptional activation functional score equal to or greater than 0.9 for this variant? F82Q
f

Given V199L , state whether its AIRE transcriptional activation functional score is at least 0.9.
t

API: above_or_equal(metric=AIRE transcriptional activation functional score, cutoff=0.9) for item I224Q
f

Does S64Y have a reported AIRE transcriptional activation functional score of at least 0.9?
f

Assess whether reported AIRE transcriptional activation functional score for F43S sits at 0.9 or higher.
f

Identify whether the reported AIRE transcriptional activation functional score of the following variant is 0.9 or greater: A317T
f

Answer whether AIRE transcriptional activation functional score of G333M is greater than or equal to 0.9.
t

Is reported AIRE transcriptional activation functional score greater than or equal to 0.9 here: K395H
f

Entry G421W : is its AIRE transcriptional activation functional score no less than 0.9?
t

Answer whether AIRE transcriptional activation functional score of W335I is greater than or equal to 0.9.
t

Assess whether reported AIRE transcriptional activation functional score for R494M sits at 0.9 or higher.
f

Please tell me: is the variant P367I at or over 0.9 in terms of AIRE transcriptional activation functional score?
t

Does the reported AIRE transcriptional activation functional score for L122T fall at or above the 0.9 mark?
f

Record E485N ; criterion: AIRE transcriptional activation functional score no lower than 0.9. Met?
f

# bool: AIRE transcriptional activation functional score of Q225L >= 0.9
f

Please indicate if the recorded AIRE transcriptional activation functional score for L93S meets or exceeds 0.9.
f

# bool: AIRE transcriptional activation functional score of Q349S >= 0.9
t

Is AIRE transcriptional activation functional score at least 0.9? Consider P509A
f

Does E508T have a reported AIRE transcriptional activation functional score of at least 0.9?
f

Given the entry G274V , answer whether its AIRE transcriptional activation functional score meets or surpasses 0.9.
t

Assess whether reported AIRE transcriptional activation functional score for L406W sits at 0.9 or higher.
f

Is the recorded value of AIRE transcriptional activation functional score equal to or greater than 0.9 for this variant? H415W
f

Can M536K be said to have AIRE transcriptional activation functional score at or above 0.9?
f

Is AIRE transcriptional activation functional score at least 0.9? Consider A429E
f

Would you say G374W shows AIRE transcriptional activation functional score at minimum 0.9?
t

Given the entry G228W , answer whether its AIRE transcriptional activation functional score meets or surpasses 0.9.
f

In plain terms: is recorded AIRE transcriptional activation functional score at least 0.9 for Q44G ?
f

Textbook exercise: given the entry M388D , state whether its AIRE transcriptional activation functional score is greater than or equal to 0.9.
f

Given S248V , state whether its AIRE transcriptional activation functional score is at least 0.9.
f

Could you verify whether the entry L283S shows AIRE transcriptional activation functional score of no less than 0.9?
t

Please check the record H14V and state if its AIRE transcriptional activation functional score is at or above 0.9.
f

Decide: is the reported value of AIRE transcriptional activation functional score for V22T equal to or greater than 0.9?
f

AIRE transcriptional activation functional score >= 0.9 for P430F ?
t

Quick check, AIRE transcriptional activation functional score >= 0.9? K133V
f

Hello, I need to know if L397D has measured AIRE transcriptional activation functional score not below 0.9. Thanks!
f

Is it the case that G150C has AIRE transcriptional activation functional score reaching or exceeding 0.9?
t

I'd appreciate it if you could say whether G204F has AIRE transcriptional activation functional score at least equal to 0.9.
f

Identify whether the reported AIRE transcriptional activation functional score of the following variant is 0.9 or greater: R445L
t

Is it the case that A403H has AIRE transcriptional activation functional score reaching or exceeding 0.9?
t

For this variant, is measured AIRE transcriptional activation functional score 0.9 or higher? K245M
f

Decide: is the reported value of AIRE transcriptional activation functional score for S535G equal to or greater than 0.9?
t
